- Test system: NCI-H2405
- experimental-protocol: relative viability (nuclei count vs DMSO), 5 days (fraction); higher = more cells survive
- cond: first compound 0.1265 µM
observation-type: relative viability

INSERT INTO assay_data (compound, measured_on, observation_type, experimental_value) VALUES
  ('COc1cc(N2CCC(C(N)=O)CC2)ccc1Nc1nc(N)c(Cl)c(Nc2ccccc2S(=O)(=O)C(C)C)n1 [HG-5-88-01] + CC(=O)c1c(C)c2cnc(Nc3ccc(N4CCNCC4)cn3)nc2n(C2CCCC2)c1=O [Palbociclib] (partner 0.5 µM)', 'NCI-H2405', 'relative viability', 0.523);

Alright, here's another compound for you.
// sample Clc1ccc(Nc2nnc(Cc3ccncc3)c3ccccc23)cc1 [Vatalanib] + CCNC(=O)c1noc(-c2cc(C(C)C)c(O)cc2O)c1-c1ccc(CN2CCOCC2)cc1 [Luminespib] (partner 0.01 µM) , its relative viability was 0.775

---

- System: HCC-44
- experimental-protocol: relative viability (nuclei count vs DMSO), 5 days (fraction); higher = more cells survive
- cond: first compound 2.53 µM
Field 'label' (enum: TRUE / FALSE). Set to TRUE when relative viability is strictly under 1; else FALSE.

INSERT INTO results (compound, class) VALUES
  ('CCCCCCCCCCCC1=C(O)C(=O)C=C(O)C1=O [Embelin] + CS(=O)(=O)CCNCc1ccc(-c2ccc3ncnc(Nc4ccc(OCc5cccc(F)c5)c(Cl)c4)c3c2)o1 [Lapatinib] (partner 2 µM)', 'FALSE'),
  ('CCCCCCCCCCCC1=C(O)C(=O)C=C(O)C1=O [Embelin] + COc1cccc2cc(-c3nc([C@H]4CC[C@H](C(=O)O)CC4)n4ncnc(N)c34)[nH]c12 [OSI-027] (partner 0.5 µM)', 'TRUE');

Request: Strictly below 1 in relative viability? CCCCCCCCCCCC1=C(O)C(=O)C=C(O)C1=O [Embelin] + O=C(CCCCCCC(=O)Nc1ccccc1)NO [Vorinostat] (partner 1 µM)
Result: FALSE

Request: Dear reviewer, please state whether CCCCCCCCCCCC1=C(O)C(=O)C=C(O)C1=O [Embelin] + N=C(N)NC(=N)NCCc1ccccc1 [Phenformin] (partner 250 µM) has relative viability strictly beneath 1.
Result: TRUE

---

- Tested on: A-427
- experimental-protocol: relative viability (nuclei count vs DMSO), 5 days (fraction); higher = more cells survive
- cond: first compound 4 µM
Kindly state relative viability for each of the entries shown.
Give bare numbers.

Would you please look over these solved cases?
INSERT INTO results (molecule, observation_type, experimental_value) VALUES
  ('COc1cc(N2CCC(C(N)=O)CC2)ccc1Nc1nc(N)c(Cl)c(Nc2ccccc2S(=O)(=O)C(C)C)n1 [HG-5-88-01] + C[C@]1(O)C[C@@H](c2nc(-c3ccc4ccc(-c5ccccc5)nc4c3)c3c(N)nccn32)C1 [Linsitinib] (partner 1 µM)', 'relative viability', 1.09),
  ('Clc1ccc(Nc2nnc(Cc3ccncc3)c3ccccc23)cc1 [Vatalanib] + Cc1cc(Nc2cc(N3CCN(C)CC3)nc(Sc3ccc(NC(=O)C4CC4)cc3)n2)n[nH]1 [Tozasertib] (partner 0.1 µM)', 'relative viability', 0.2),
  ('C[C@@H]1CN(CC(=O)Nc2ccc3c(c2)Cc2cccc(-c4cc(=O)cc(N5CCOCC5)o4)c2S3)C[C@H](C)O1 + CC(=O)c1c(C)c2cnc(Nc3ccc(N4CCNCC4)cn3)nc2n(C2CCCC2)c1=O [Palbociclib] (partner 0.5 µM)', 'relative viability', 0.593);

Batch request: relative viability for each of the following molecules.
1. C[C@@H]1CN(CC(=O)Nc2ccc3c(c2)Cc2cccc(-c4cc(=O)cc(N5CCOCC5)o4)c2S3)C[C@H](C)O1 + Nc1ncn([C@H]2C[C@H](O)[C@@H](CO)O2)c(=O)n1 [Decitabine] (partner 2 µM)
2. C[C@@H]1CN(CC(=O)Nc2ccc3c(c2)Cc2cccc(-c4cc(=O)cc(N5CCOCC5)o4)c2S3)C[C@H](C)O1 + COc1cccc2cc(-c3nc([C@H]4CC[C@H](C(=O)O)CC4)n4ncnc(N)c34)[nH]c12 [OSI-027] (partner 0.5 µM)
3. Clc1ccc(Nc2nnc(Cc3ccncc3)c3ccccc23)cc1 [Vatalanib] + Cc1nc(NC(=O)N2CCC[C@H]2C(N)=O)sc1-c1ccnc(C(C)(C)C(F)(F)F)c1 [Alpelisib] (partner 2 µM)

Result:
[0.587, 0.575, 1.08]

---

Please go through the items and note down their relative viability.
- System: EBC-1
- experimental-protocol: relative viability (nuclei count vs DMSO), 5 days (fraction); higher = more cells survive
- cond: first compound 0.4 µM
Give bare numbers.

// below: answered compounds
INSERT INTO results (compound, experimental_value) VALUES
  ('Clc1ccc(Nc2nnc(Cc3ccncc3)c3ccccc23)cc1 [Vatalanib] + CC1(C)CCC(c2ccc(Cl)cc2)=C(CN2CCN(c3ccc(C(=O)NS(=O)(=O)c4ccc(N[C@H](CCN5CCOCC5)CSc5ccccc5)c(S(=O)(=O)C(F)(F)F)c4)cc3)CC2)C1 [Navitoclax] (partner 0.5 µM)', 0.46),
  ('C[C@@H]1CN(CC(=O)Nc2ccc3c(c2)Cc2cccc(-c4cc(=O)cc(N5CCOCC5)o4)c2S3)C[C@H](C)O1 + COc1cc2c(Oc3ccc(NC(=O)C4(C(=O)Nc5ccc(F)cc5)CC4)cc3F)ccnc2cc1OCCCN1CCOCC1 [Foretinib] (partner 0.25 µM)', 0.102),
  ('COc1cc(N2CCC(C(N)=O)CC2)ccc1Nc1nc(N)c(Cl)c(Nc2ccccc2S(=O)(=O)C(C)C)n1 [HG-5-88-01] + CC(C)C[C@H](NC(=O)[C@H](Cc1ccccc1)NC(=O)c1cnccn1)B(O)O [Bortezomib] (partner 0.002 µM)', 0.549),
  ('COc1cc(N2CCC(C(N)=O)CC2)ccc1Nc1nc(N)c(Cl)c(Nc2ccccc2S(=O)(=O)C(C)C)n1 [HG-5-88-01] + CS(=O)(=O)CCNCc1ccc(-c2ccc3ncnc(Nc4ccc(OCc5cccc(F)c5)c(Cl)c4)c3c2)o1 [Lapatinib] (partner 2 µM)', 0.209),
  ('Clc1ccc(Nc2nnc(Cc3ccncc3)c3ccccc23)cc1 [Vatalanib] + CS(=O)(=O)CCNCc1ccc(-c2ccc3ncnc(Nc4ccc(OCc5cccc(F)c5)c(Cl)c4)c3c2)o1 [Lapatinib] (partner 2 µM)', 0.22);

The recorded relative viability for entry COc1cc(N2CCC(C(N)=O)CC2)ccc1Nc1nc(N)c(Cl)c(Nc2ccccc2S(=O)(=O)C(C)C)n1 [HG-5-88-01] + C[C@]1(O)C[C@@H](c2nc(-c3ccc4ccc(-c5ccccc5)nc4c3)c3c(N)nccn32)C1 [Linsitinib] (partner 1 µM) equals 0.924

---

Would you kindly list relative viability for each of these compounds?
- System: SW 900
- experimental-protocol: relative viability (nuclei count vs DMSO), 5 days (fraction); higher = more cells survive
- cond: first compound 0.01 µM
Numbers only.

Solved entries:
INSERT INTO assay_data (compound, observation_type, experimental_value) VALUES
  ('CC(C)Oc1cc(Nc2nc(N[C@@H](C)c3ccc(F)cn3)ncc2Cl)n[nH]1 [AZ23] + CC(=O)Nc1cccc(-n2c(=O)n(C3CC3)c(=O)c3c(Nc4ccc(I)cc4F)n(C)c(=O)c(C)c32)c1 [Trametinib] (partner 0.02 µM)', 'relative viability', 1.06),
  ('CC(C)Oc1cc(Nc2nc(N[C@@H](C)c3ccc(F)cn3)ncc2Cl)n[nH]1 [AZ23] + Cc1cc(Nc2cc(N3CCN(C)CC3)nc(Sc3ccc(NC(=O)C4CC4)cc3)n2)n[nH]1 [Tozasertib] (partner 0.1 µM)', 'relative viability', 0.536),
  ('CC(C)Oc1cc(Nc2nc(N[C@@H](C)c3ccc(F)cn3)ncc2Cl)n[nH]1 [AZ23] + CCNC(=O)c1noc(-c2cc(C(C)C)c(O)cc2O)c1-c1ccc(CN2CCOCC2)cc1 [Luminespib] (partner 0.01 µM)', 'relative viability', 0.174);

For the next question, use this compound.
relative viability recorded for this compound, CC(C)Oc1cc(Nc2nc(N[C@@H](C)c3ccc(F)cn3)ncc2Cl)n[nH]1 [AZ23] + O=C(c1cc(Cc2n[nH]c(=O)c3ccccc23)ccc1F)N1CCN(C(=O)C2CC2)CC1 [Olaparib] (partner 8 µM) , is 0.804

---

- Test system: NCI-H1650
- experimental-protocol: relative viability (nuclei count vs DMSO), 5 days (fraction); higher = more cells survive
- cond: first compound 4 µM
Could you please report measured relative viability for the items listed next?
Give bare numbers.

INSERT INTO measurements (compound, experimental_value) VALUES
  ('COc1cc(N2CCC(C(N)=O)CC2)ccc1Nc1nc(N)c(Cl)c(Nc2ccccc2S(=O)(=O)C(C)C)n1 [HG-5-88-01] + COc1cc2c(Oc3ccc(NC(=O)C4(C(=O)Nc5ccc(F)cc5)CC4)cc3F)ccnc2cc1OCCCN1CCOCC1 [Foretinib] (partner 0.25 µM)', 0.836),
  ('COc1cc(N2CCC(C(N)=O)CC2)ccc1Nc1nc(N)c(Cl)c(Nc2ccccc2S(=O)(=O)C(C)C)n1 [HG-5-88-01] + Cc1nc(Nc2ncc(C(=O)Nc3c(C)cccc3Cl)s2)cc(N2CCN(CCO)CC2)n1 [Dasatinib] (partner 0.075 µM)', 0.221),
  ('COc1cc(N2CCC(C(N)=O)CC2)ccc1Nc1nc(N)c(Cl)c(Nc2ccccc2S(=O)(=O)C(C)C)n1 [HG-5-88-01] + N=C(N)NC(=N)NCCc1ccccc1 [Phenformin] (partner 250 µM)', 0.259),
  ('Clc1ccc(Nc2nnc(Cc3ccncc3)c3ccccc23)cc1 [Vatalanib] + O=C(CCCCCCC(=O)Nc1ccccc1)NO [Vorinostat] (partner 1 µM)', 0.534),
  ('COc1cc(N2CCC(C(N)=O)CC2)ccc1Nc1nc(N)c(Cl)c(Nc2ccccc2S(=O)(=O)C(C)C)n1 [HG-5-88-01] + O=C(CCCCCCC(=O)Nc1ccccc1)NO [Vorinostat] (partner 1 µM)', 0.46);

Report relative viability for each item below.
1. COc1cc(N2CCC(C(N)=O)CC2)ccc1Nc1nc(N)c(Cl)c(Nc2ccccc2S(=O)(=O)C(C)C)n1 [HG-5-88-01] + CS(=O)(=O)N1CCN(Cc2cc3nc(-c4cccc5[nH]ncc45)nc(N4CCOCC4)c3s2)CC1 [Pictilisib] (partner 1 µM)
2. COc1cc(N2CCC(C(N)=O)CC2)ccc1Nc1nc(N)c(Cl)c(Nc2ccccc2S(=O)(=O)C(C)C)n1 [HG-5-88-01] + CC(=O)c1c(C)c2cnc(Nc3ccc(N4CCNCC4)cn3)nc2n(C2CCCC2)c1=O [Palbociclib] (partner 0.5 µM)
3. Clc1ccc(Nc2nnc(Cc3ccncc3)c3ccccc23)cc1 [Vatalanib] + N=C(N)NC(=N)NCCc1ccccc1 [Phenformin] (partner 250 µM)
4. Clc1ccc(Nc2nnc(Cc3ccncc3)c3ccccc23)cc1 [Vatalanib] + CC(=O)c1c(C)c2cnc(Nc3ccc(N4CCNCC4)cn3)nc2n(C2CCCC2)c1=O [Palbociclib] (partner 0.5 µM)

Result:
0.355
0.223
0.403
0.312
